test system: biotinyl-Ile-oxazolone; assay: self-aminoacylation, catalytic enhancement (BIO) (fold over background); higher = more active; k-Seq, kA / k0A0; sequences stand for … in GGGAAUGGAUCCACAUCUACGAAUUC…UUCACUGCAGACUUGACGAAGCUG
Fewer inactive variants are shown than the library holds.
Quick rule for you: self-aminoacylation at 1 or higher means y, lower means n.

Item CUACUUCAAACACUCCGUCUG [Fam1A.1 aminoacylation ribozyme variant] with self-aminoacylation of 1 or above? n

Try this sequence too: AUUAGGCUGGUCAUCGAGUGA [Fam2.1 aminoacylation ribozyme variant] y

Try this sequence too: AAGUUUGCUAAUAGUCAUAAG [Fam3.1 aminoacylation ribozyme variant] y

Try this sequence too: AUUAACCUAGGUCAUCGGGAG [Fam2.2 aminoacylation ribozyme variant] y

Try this sequence too: AUUCAACUAGGUCAUCGGCUG [Fam2.2 aminoacylation ribozyme variant] y

* * *

test system: biotinyl-Met-oxazolone; experiment: self-aminoacylation, catalytic enhancement (BMO) (fold over background); higher = more active; k-Seq, kA / k0A0; sequences stand for … in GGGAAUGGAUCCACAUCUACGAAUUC…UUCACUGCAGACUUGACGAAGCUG
Variants at the floor of the assay were thinned out.
Quick rule for you: self-aminoacylation at 1 or higher means Criterion met, lower means Criterion not met.

Item CGACUUAAAACAAUCGGUCUG [Fam1A.1 aminoacylation ribozyme variant] with self-aminoacylation of 1 or above? Criterion met

Try this sequence too: CUUCUUCAAACAAUCGGUCGG [Fam1A.1 aminoacylation ribozyme variant] Criterion met

Try this sequence too: AAGUUUGCUAGUAGUAGCAAG [Fam3.1 aminoacylation ribozyme variant] Criterion not met

Try this sequence too: AAGUUUGCUAAUAGUCGUAAG [Fam3.1 aminoacylation ribozyme variant] Criterion met

Try this sequence too: CCACACUUCGGGCAAUCGGUC [Fam1B.1 aminoacylation ribozyme variant] Criterion met

Try this sequence too: CUGCUUCAUACAAUCGGUCUG [Fam1A.1 aminoacylation ribozyme variant] Criterion not met

Try this sequence too: UUUGACCUAGGUCAUCGGGUG [Fam2.2 aminoacylation ribozyme variant] Criterion met

Try this sequence too: CCACACUUUAAGCAAUCGGGC [Fam1B.1 aminoacylation ribozyme variant] Criterion met

Try this sequence too: ACUACCCUAGUCAUCGAGUGA [Fam2.1 aminoacylation ribozyme variant] Criterion met

Try this sequence too: AUUCACCUAGGUGAUCGGCUG [Fam2.2 aminoacylation ribozyme variant] Criterion met

Try this sequence too: CUCCUUCAAACAAUCGGUCGG [Fam1A.1 aminoacylation ribozyme variant] Criterion met

Try this sequence too: AAGUUUGCUCAUAGUAGCAAG [Fam3.1 aminoacylation ribozyme variant] Criterion not met

Try this sequence too: UCACACUUCAAGCAAUCGCUC [Fam1B.1 aminoacylation ribozyme variant] Criterion met

Try this sequence too: AAUCACCUCGGUCAUCGGGUG [Fam2.2 aminoacylation ribozyme variant] Criterion met

Try this sequence too: CCAAACUUCAAGCAAUCGUUC [Fam1B.1 aminoacylation ribozyme variant] Criterion not met

Try this sequence too: AUCACCCUGGUCACCGAGUGA [Fam2.1 aminoacylation ribozyme variant] Criterion met

Try this sequence too: AUUACCAUGGUCAUCGAGAGA [Fam2.1 aminoacylation ribozyme variant] Criterion not met
